Test system: OVCAR-3
assayProtocol: NCI tumour cell line growth inhibition, 48 h
Active and inactive are the calls of the source. Rule as the data show it: active = GI50 up to about 1.1 µM and inactive = higher.
quantityName: GI50

A selection of reference data follows.
1. O=C(CCc1cc(-c2ccccc2)[nH]c(=S)n1)Nc1ccccc1[N+](=O)[O-]
> 100 µM (inactive)
2. O=C1/C(=C/c2ccccc2)CN(C(=O)OCC(Cl)(Cl)Cl)C/C1=C\c1ccccc1
4.19 µM (inactive)
3. CCC1c2[nH]c3ccccc3c2C[C@H]2C(=O)NC(Cc3ccccc3)C(=O)N12 (stereo not given in full)
31 µM (inactive)

Below: the item to evaluate.
Enquiry: What does the record list as GI50 for Cc1c2nc3ccccc3sc-2cc(=O)c1C ?
Return: 35.3 µM (inactive)

###

System: SNB-75
assayProtocol: NCI tumour cell line growth inhibition, 48 h
Active and inactive are the calls of the source. Cut-off read from the data, not from the text of the source: active = GI50 up to about 1.1 µM and inactive = higher.
Form entry, call: pick from Y for active, N for inactive

Worked examples follow.
1) O=C1C2Nc3ccccc3SC2C(=O)N1c1cccc([N+](=O)[O-])c1 (stereo unspecified)
N
2) COC(=O)C(=O)C(C(=O)C(=O)Nc1ccc(F)cc1)c1nc2ccc([N+](=O)[O-])cc2nc1O (stereo unspecified)
N
3) CC(C)(C)OC(=O)NC(Cc1ccccc1)C(=O)OCN1C(=O)C2C3C=CC(C2C1=O)C1C2C(=O)N(COC(=O)C(Cc4ccccc4)NC(=O)OC(C)(C)C)C(=O)C2C31 (stereo unspecified)
N
4) COc1cccc(OCC(=N/NC(=O)c2ccncc2)/N=C/c2cccnc2)c1
N
5) CCCC(=O)Nc1cc(/C=C/C(=O)N2CC(CCl)c3ccc(N)cc32)n(C)c1 (stereo unspecified)
Y

Enquiry: I would be grateful if you could indicate the recorded call for CN(CCO)c1nc2c(c(=O)[nH]1)CNCC2 .
Return: N

Enquiry: Would you mind telling me which call this test gave COc1cc(C(=O)N(C(=S)OC23CC4CC(CC(C4)C2)C3)c2ccccc2)cc(OC)c1OC ?
Return: N

Enquiry: Would you mind telling me which call this test gave O=P1(Cc2ccccc2)c2ccccc2-c2ccccc21 ?
Return: N

Enquiry: Fill in: this test's call for NCCCN(CCCN(C(=O)Nc1ccccc1)c1ccccc1)C(=O)Nc1ccccc1 is ___
Return: N

Enquiry: # fetch the recorded call for CC[C@@H]1CC[C@@H]2[C@H](CC[C@]3(C)[C@@H](O)CC[C@@H]23)[C@H]1CO here
Return: N

Enquiry: Can you look up the reported call for COC1CC(n2cnc3c(N)ncnc32)OC1CO (stereo unspecified) for me?
Return: N

Enquiry: Fill in: this test's call for N#Cc1c(NCCc2ccc(F)cc2)c2ccccc2n2c1nc1ccccc12 is ___
Return: N

Enquiry: Name the outcome recorded for CCCCCCCC(CC(=O)NC(CO)C(=O)NC(CO)CC(C)C)OC(=O)CC(CCCCCCC)OC(=O)CC(CCCCCCC)OC1OC(C)C(O)C(OC2OC(C)C(OC(C)=O)C(O)C2O)C1O (stereo unspecified) in the assay.
Return: N

Enquiry: Could you check what this test reported for N/C(S)=N/N=C/c1cc(CN2CCOCC2)c(N)cn1 ?
Return: N

Enquiry: // param item: O=C(O)/C(=C\c1ccccc1Cl)S(=O)(=O)c1ccccc1 ; yields the recorded call
Return: N

Enquiry: What is the recorded call for this molecule in the test? COc1ccc(C2NC(=S)Nc3c2c(=O)oc2c3ccc3ccccc32)cc1 (stereo unspecified)
Return: N

Enquiry: What is the recorded call for this molecule in the test? COC(=O)N/N=C(\C)C(CN1CCOCC1)C(c1ccccc1)c1cc2ccccc2oc1=O (stereo unspecified)
Return: N
